# Experimental System: UniProt:P00742
# Sequence (P00742 41-179 limits assumed): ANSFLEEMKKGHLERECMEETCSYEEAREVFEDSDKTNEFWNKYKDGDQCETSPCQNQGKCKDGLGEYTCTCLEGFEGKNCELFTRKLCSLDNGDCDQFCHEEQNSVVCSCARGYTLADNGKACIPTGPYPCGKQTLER
# Sequence (P00742 235-488 limits assumed): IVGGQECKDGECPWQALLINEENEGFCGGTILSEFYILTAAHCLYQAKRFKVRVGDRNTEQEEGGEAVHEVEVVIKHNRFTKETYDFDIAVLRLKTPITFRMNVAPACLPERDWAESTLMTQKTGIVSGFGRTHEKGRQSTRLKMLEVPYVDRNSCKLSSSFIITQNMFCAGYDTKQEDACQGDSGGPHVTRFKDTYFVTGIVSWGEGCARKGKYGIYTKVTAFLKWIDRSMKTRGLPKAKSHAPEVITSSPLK
# Protocol: Inhibition of human F10a using S-2765 as substrate at 0.1 uM after 45 mins by spectra max analysis relative to control
inhibition overview
Quick note: give the figure in %, leave out the unit.

Check out these entries, answers already filled in.
>  <Molecule Smiles>
CCN(CC)Cc1cc2ccccc2n1-c1ccc(N2C[C@H](CNC(=O)c3ccc(Cl)s3)OC2=O)cc1

>  <Metric Name>
inhibition

>  <Assay Result>
61

$$$$
>  <Molecule Smiles>
O=C(NC[C@H]1CN(c2ccc(-n3c(CN4CCOCC4)cc4ccccc43)cc2)C(=O)O1)c1ccc(Cl)s1

>  <Metric Name>
inhibition

>  <Assay Result>
58

$$$$
>  <Molecule Smiles>
O=C(NC[C@H]1CN(c2ccc(-c3nc(CN4CCCC4)cs3)cc2)C(=O)O1)c1ccc(Cl)s1

>  <Metric Name>
inhibition

>  <Assay Result>
79

$$$$

Alright, here's another compound for you.
Return reported inhibition; argument: `O=C(NC[C@H]1CN(c2ccc(-n3cccc3CN3CCOCC3)cc2)C(=O)O1)c1ccc(Cl)s1` 76

---

# Experimental System: Coagulation factor X (Oryctolagus cuniculus)
# Sequence (O19045 whole entry): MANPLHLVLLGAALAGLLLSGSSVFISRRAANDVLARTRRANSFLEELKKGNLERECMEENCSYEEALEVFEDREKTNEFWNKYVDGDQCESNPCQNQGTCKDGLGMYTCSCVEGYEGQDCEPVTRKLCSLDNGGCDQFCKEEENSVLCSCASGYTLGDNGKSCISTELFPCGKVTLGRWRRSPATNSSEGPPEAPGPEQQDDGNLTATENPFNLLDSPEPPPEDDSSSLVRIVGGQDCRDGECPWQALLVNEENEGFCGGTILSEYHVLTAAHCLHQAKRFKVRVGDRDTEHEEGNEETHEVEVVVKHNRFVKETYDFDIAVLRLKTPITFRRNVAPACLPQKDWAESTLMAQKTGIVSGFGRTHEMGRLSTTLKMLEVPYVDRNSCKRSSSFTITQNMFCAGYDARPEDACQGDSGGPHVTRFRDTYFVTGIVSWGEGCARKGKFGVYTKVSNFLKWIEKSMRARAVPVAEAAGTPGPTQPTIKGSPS
# Protocol: Inhibition of F10a in rabbit plasma assessed as doubling of prothombin time
Metric Name: IC50 (µM)
Quick note: give the figure in µM, leave out the unit.

Check out these entries, answers already filled in.
>  <Molecule Smiles>
CN1CCN(Cc2cccn2-c2ccc(N3C[C@H](CNC(=O)c4ccc(Cl)s4)OC3=O)cc2)CC1

>  <Metric Name>
IC50

>  <Assay Result>
3.9

$$$$
>  <Molecule Smiles>
O=C(NC[C@H]1CN(c2ccc(-n3c(CN4CCCCC4)cc4ccccc43)cc2)C(=O)O1)c1ccc(Cl)s1

>  <Metric Name>
IC50

>  <Assay Result>
11.5

$$$$
>  <Molecule Smiles>
O=C(NC[C@H]1CN(c2ccc(-n3cccc3CN3CCCCC3)cc2)C(=O)O1)c1ccc(Cl)s1

>  <Metric Name>
IC50

>  <Assay Result>
2.89

$$$$
>  <Molecule Smiles>
CCN(CC)Cc1csc(-c2ccc(N3C[C@H](CNC(=O)c4ccc(Cl)s4)OC3=O)cc2)n1

>  <Metric Name>
IC50

>  <Assay Result>
0.72

$$$$
>  <Molecule Smiles>
CCN(CC)Cc1cc2ccccc2n1-c1ccc(N2C[C@H](CNC(=O)c3ccc(Cl)s3)OC2=O)cc1

>  <Metric Name>
IC50

>  <Assay Result>
6.02

$$$$

Return reported IC50; argument: `CNCc1csc(-c2ccc(N3C[C@H](CNC(=O)c4ccc(Cl)s4)OC3=O)cc2)n1` 1.66

---

# Experimental System: Coagulation factor X (Oryctolagus cuniculus)
# Sequence (O19045 whole entry): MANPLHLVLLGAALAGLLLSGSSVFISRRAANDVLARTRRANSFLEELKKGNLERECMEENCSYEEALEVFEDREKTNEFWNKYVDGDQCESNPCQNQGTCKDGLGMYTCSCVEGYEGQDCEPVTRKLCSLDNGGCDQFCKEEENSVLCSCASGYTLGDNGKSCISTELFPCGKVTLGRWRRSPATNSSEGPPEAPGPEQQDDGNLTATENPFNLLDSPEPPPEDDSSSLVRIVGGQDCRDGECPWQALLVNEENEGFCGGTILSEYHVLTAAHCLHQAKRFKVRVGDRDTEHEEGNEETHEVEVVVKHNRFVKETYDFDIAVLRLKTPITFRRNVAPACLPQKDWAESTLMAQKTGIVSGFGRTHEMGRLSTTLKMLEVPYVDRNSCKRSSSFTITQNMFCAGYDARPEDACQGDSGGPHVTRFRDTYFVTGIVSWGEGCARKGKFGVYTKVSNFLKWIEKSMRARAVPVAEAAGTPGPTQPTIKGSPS
# Protocol: Inhibition of F10a in rabbit plasma assessed as doubling of prothombin time
pIC50 overview
The value called pIC50 is obtained by taking minus log10 of the concentration in mol/L.

Check out these entries, answers already filled in.
>  <Molecule Smiles>
CCNCc1csc(-c2ccc(N3C[C@H](CNC(=O)c4ccc(Cl)s4)OC3=O)cc2)n1

>  <Assay Result>
6.05

$$$$
>  <Molecule Smiles>
O=C(NC[C@H]1CN(c2ccc(-n3c(CN4CCOCC4)cc4ccccc43)cc2)C(=O)O1)c1ccc(Cl)s1

>  <Assay Result>
4.95

$$$$
>  <Molecule Smiles>
O=C(NC[C@H]1CN(c2ccc(-n3cccc3CN3CCC3)cc2)C(=O)O1)c1ccc(Cl)s1

>  <Assay Result>
6.09

$$$$
>  <Molecule Smiles>
CC1CCN(Cc2csc(-c3ccc(N4C[C@H](CNC(=O)c5ccc(Cl)s5)OC4=O)cc3)n2)CC1

>  <Assay Result>
5.42

$$$$
>  <Molecule Smiles>
CN(C)Cc1cc2ccccc2n1-c1ccc(N2C[C@H](CNC(=O)c3ccc(Cl)s3)OC2=O)cc1

>  <Assay Result>
5.23

$$$$

API: value(readout= pIC50, system= Coagulation factor X (Oryctolagus cuniculus), query= `O=C(NC[C@H]1CN(c2ccc(-n3cccc3CN3CCOCC3)cc2)C(=O)O1)c1ccc(Cl)s1` ) 5.50

---

# Experimental System: Coagulation factor X (Oryctolagus cuniculus)
# Protocol: Inhibition of F10a in rabbit plasma assessed as doubling of prothombin time
Metric Name: log10(IC50) (log10 of the value in µM)
Parameter value (number): base-10 log of IC50 in µM.

>  <Molecule Smiles>
CN(C)Cc1cccn1-c1ccc(N2C[C@H](CNC(=O)c3ccc(Cl)s3)OC2=O)cc1F

>  <log10(IC50)>
-0.04

$$$$
>  <Molecule Smiles>
CN1CCN(Cc2cc3ccccc3n2-c2ccc(N3C[C@H](CNC(=O)c4ccc(Cl)s4)OC3=O)cc2)CC1

>  <log10(IC50)>
1.12

$$$$
>  <Molecule Smiles>
CC1CCN(Cc2cccn2-c2ccc(N3C[C@H](CNC(=O)c4ccc(Cl)s4)OC3=O)cc2)CC1

>  <log10(IC50)>
0.54

$$$$
>  <Molecule Smiles>
CN(C)Cc1cccn1-c1cc(F)c(N2C[C@H](CNC(=O)c3ccc(Cl)s3)OC2=O)c(F)c1

>  <log10(IC50)>
0.30

$$$$

Return reported log10(IC50); argument: `CN(C)Cc1cccn1-c1ccc(N2C[C@H](CNC(=O)c3ccc(Cl)s3)OC2=O)cc1` -0.11

Also check `O=C(NC[C@H]1CN(c2ccc(-c3nc(CN4CCOCC4)cs3)cc2)C(=O)O1)c1ccc(Cl)s1` 0.61

Also check `O=C(NC[C@H]1CN(c2ccc(-c3nc(CN4CCCCC4)cs3)cc2)C(=O)O1)c1ccc(Cl)s1` 0.49
